Assay: Stability in rat brain homogenate
Conditions: male, Sprague Dawley, rat, rat brain homogenate
Where a name gives a salt, the structure may show the parent alone.
For each record, write down the corresponding half-life at 1 μM.

[Q] Data request, read-out half-life at 1 μM, for c1ccc2c(CCN3CCC3)c[nH]c2c1 [Compound 1, fumarate]
[A] > 4.82 h

[Q] Also, COc1ccc2[nH]cc(CCN3CCC3)c2c1 [Compound 3, fumarate] please.
[A] > 4.82 h

[Q] Also, Oc1cccc2[nH]cc(CCN3CCC3)c12 please.
[A] 2.91 h

---

Assay: Stability in mouse brain homogenate
Conditions: mouse brain homogenate (male CD-1), 1 μM, 37° C., 120 min
Counter-ions that a name gives are not always drawn.
ENDPOINT_LABEL: % Compound Remaining (after 120 min) (%)
Write the value in % as a bare number.

[Q] Data request, read-out % Compound Remaining (after 120 min), for Oc1cccc2[nH]cc(CCN3CCC3)c12 [Compound 2, 3-(2-(azetidin-1-yl)ethyl)-1H-indol-4-ol]
[A] 74.2

[Q] Also, COc1ccc2[nH]cc(CCN(C)C)c2c1 [Compound 5-MeO-DMT, reference compound] please.
[A] 91.2

[Q] Also, COc1ccc2[nH]cc(CCN3CCC3)c2c1 [Compound 3, fumarate] please.
[A] 103.1

[Q] Also, CN(C)CCc1c[nH]c2cccc(O)c12 [Psilocin, psilocin, reference compound] please.
[A] 97.6

[Q] Also, CN(C)CCc1c[nH]c2ccccc12 [DMT, N,N-dimethyltryptamine, reference compound] please.
[A] 0.0

[Q] Also, c1ccc2c(CCN3CCC3)c[nH]c2c1 [Compound 1, fumarate] please.
[A] 111.3

---

For each record, write down the corresponding EC50.
Target: 5-HT2B receptor (Homo sapiens)
Sequence (P41595 whole entry): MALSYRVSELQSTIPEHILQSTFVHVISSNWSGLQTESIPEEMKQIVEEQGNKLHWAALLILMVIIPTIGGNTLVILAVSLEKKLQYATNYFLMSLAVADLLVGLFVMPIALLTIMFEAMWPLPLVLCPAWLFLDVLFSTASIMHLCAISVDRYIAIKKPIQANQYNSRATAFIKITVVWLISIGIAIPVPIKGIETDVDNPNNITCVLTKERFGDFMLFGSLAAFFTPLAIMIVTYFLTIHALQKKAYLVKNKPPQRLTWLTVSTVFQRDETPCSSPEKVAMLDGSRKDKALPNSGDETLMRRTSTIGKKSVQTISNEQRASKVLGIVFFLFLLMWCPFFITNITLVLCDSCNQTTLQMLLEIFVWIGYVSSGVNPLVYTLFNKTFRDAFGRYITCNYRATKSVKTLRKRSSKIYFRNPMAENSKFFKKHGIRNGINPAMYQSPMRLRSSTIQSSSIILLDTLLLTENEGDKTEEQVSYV
Test: FLIPR Ca2+ flux agonist assay at 5-HT2B (HEK293)
Counter-ions that a name gives are not always drawn.
Write the value in nM as a bare number.

[Q] Data request, read-out EC50, for c1ccc2c(CCN3CCC3)c[nH]c2c1 [Compound 1, fumarate]
[A] 917

[Q] Also, COc1ccc2[nH]cc(CCN3CCC3)c2c1 [Compound 3, fumarate] please.
[A] 274

---

For each record, write down the corresponding microsomal CLint at 1 μM.
Experiment: Metabolic stability in human liver microsomes (HLM)
Details: both, human, pooled human liver microsomes, pH 7.4
Counter-ions that a name gives are not always drawn.
Write the value in µL/min/mg as a bare number.

[Q] Data request, read-out microsomal CLint at 1 μM, for CN(C)CCc1c[nH]c2ccccc12 [DMT, N,N-dimethyltryptamine, reference compound]
[A] 199

[Q] Also, c1ccc2c(CCN3CCC3)c[nH]c2c1 [Compound 1, fumarate] please.
[A] 12.4

[Q] Also, CN(C)CCc1c[nH]c2cccc(O)c12 [Psilocin, psilocin, reference compound] please.
[A] 127

[Q] Also, COc1ccc2[nH]cc(CCN(C)C)c2c1 [Compound 5-MeO-DMT, reference compound] please.
[A] 102

---

For each record, write down the corresponding 5-HT2B % Act @ Max Dose.
Biological target: 5-HT2B receptor (Homo sapiens)
Construct: host or cells: HEK293
Experiment: FLIPR Ca2+ flux agonist assay at 5-HT2B (HEK293)
Format: cell-based
Conditions: Ca2+ flux, agonist mode, HEK293
Structures can show the parent of a compound that is named as a salt.
Write the value in % as a bare number.

[Q] Data request, read-out 5-HT2B % Act @ Max Dose, for CCN(C)CCc1c[nH]c2ccccc12 [MET, reference compound]
[A] 22.5

[Q] Also, COc1ccc2[nH]cc(CCN3CCC3)c2c1 [Compound 3, fumarate] please.
[A] 35.0

[Q] Also, CN(C)CCc1c[nH]c2cccc(O)c12 [Psilocin, psilocin, reference compound] please.
[A] 1.44

[Q] Also, c1ccc2c(CCN3CCC3)c[nH]c2c1 [Compound 1, fumarate] please.
[A] 22.6

[Q] Also, CN(C)CCc1c[nH]c2ccccc12 [DMT, N,N-dimethyltryptamine, reference compound] please.
[A] 10.4

[Q] Also, Oc1cccc2[nH]cc(CCN3CCC3)c12 please.
[A] 3.83

[Q] Also, COc1ccc2[nH]cc(CCN(C)C)c2c1 [Compound 5-MeO-DMT, reference compound] please.
[A] 17.6

[Q] Also, CCN(C)CCc1c[nH]c2cccc(O)c12 [Compound 4-HO-MET, reference compound] please.
[A] 1.09
